Origin of the recorded values: ChEMBL document CHEMBL4828709

- tested_system: UniProt Q13547
- condition_summary: Sf9, dose 10.0 nM, time 15.0 min
endpoint: inhibition (%)

# smiles_notation, recorded_value
rows = [
    ("Cc1cc(Nc2ncc(Cl)c(Nc3ccccc3S(=O)(=O)C(C)C)n2)ccc1C(=O)NCCCCCCC(=O)NO", 35),
    ("CC(C)S(=O)(=O)c1ccccc1Nc1nc(Nc2cccc(C(=O)NCCCCC(=O)NO)c2)ncc1Cl", 23),
]

A. CC(C)S(=O)(=O)c1ccccc1Nc1nc(Nc2cccc(C(=O)NCCCC(=O)NO)c2)ncc1Cl
B. CC(C)S(=O)(=O)c1ccccc1Nc1nc(Nc2ccc(NC(=O)CCCCCC(=O)NO)cc2)ncc1Cl
Task: Field: entry with larger inhibition (options A / B ). Use the label to indicate which entry you chose.
Result: B

###

- tested_system: ALK tyrosine kinase receptor (Homo sapiens)
- procedure_details: Inhibition of ALK (unknown origin) at 100 nM preincubated for 10 mins followed by addition of substrate and ATP for 25 mins by caliper EZ reader method
- condition_summary: time 35.0 min
endpoint: inhibition (%)

# smiles_notation, endpoint_unit, recorded_value
rows = [
    ("Cc1cc(Nc2ncc(Cl)c(Nc3ccccc3S(=O)(=O)C(C)C)n2)ccc1C(=O)NCCCCCCC(=O)NO", "%", 101),
    ("Cc1cnc(Nc2ccc(NC(=O)CCCCCCC(=O)NO)cc2)nc1Nc1ccccc1S(=O)(=O)C(C)C", "%", 97.9),
    ("CC(C)S(=O)(=O)c1ccccc1Nc1nc(Nc2ccc(NC(=O)CCCC(=O)NO)cc2)ncc1Cl", "%", 98.5),
]

P. CC(C)S(=O)(=O)c1ccccc1Nc1nc(Nc2ccc(NC(=O)CC(=O)NO)cc2)ncc1Cl
Q. Cc1cccc(Nc2nc(Nc3ccc(NC(=O)CCCCCCC(=O)NO)cc3)ncc2Cl)c1
Task: Short answer wanted: higher inhibition, P or Q ? Choose, then provide that item's label.
Result: P
(P: 98.2%, Q: 4.9%)

###

- tested_system: Histone deacetylase 1 (Homo sapiens)
- condition_summary: Sf9, dose 100.0 nM, time 15.0 min
endpoint: inhibition (%)

# smiles_notation, inhibition / %
measured = [
    ("CC(C)S(=O)(=O)c1ccccc1Nc1nc(Nc2cccc(NC(=O)CCCC(=O)NO)c2)ncc1Cl", 83),
    ("CC(C)S(=O)(=O)c1ccccc1Nc1nc(Nc2ccc(NC(=O)CCCCCC(=O)NO)cc2)ncc1Cl", 90),
    ("Cc1ccc(Nc2nc(Nc3ccc(NC(=O)CCCCCCC(=O)NO)cc3)ncc2Cl)cc1", 97),
    ("CC(C)S(=O)(=O)c1ccccc1Nc1nc(Nc2ccc(NC(=O)CCCC(=O)NO)cc2)ncc1Cl", 17),
    ("CC(C)S(=O)(=O)c1ccccc1Nc1nc(Nc2ccc(C(=O)NCCCCCCC(=O)NO)c(Cl)c2)ncc1Cl", 67),
    ("CC(C)S(=O)(=O)c1ccccc1Nc1nc(Nc2cccc(C(=O)NCCCC(=O)NO)c2)ncc1Cl", 44),
    ("Cc1cc(C(=O)NCCCCCC(=O)NO)ccc1Nc1ncc(Cl)c(Nc2ccccc2S(=O)(=O)C(C)C)n1", 96),
]

P. COc1ccc(Nc2nc(Nc3ccc(NC(=O)CCCCCCC(=O)NO)cc3)ncc2Cl)cc1OC
Q. CC(C)S(=O)(=O)c1ccccc1Nc1nc(Nc2ccc(NC(=O)CCCCC(=O)NO)cc2)ncc1Cl
Task: I need your help: which of the pair P , Q has higher inhibition? API: response body contains the label of the selected item.
Result: P
(P: 94%, Q: 20%)

###

- procedure_details: Cmax in Sprague-Dawley rat at 1 mg/kg, iv measured for 12 hrs by LC-MS/MS analysis
- Assay type: ADME, organism-based
- Design: route intravenous, time 12 hrs, dose 1 mg/kg
- condition_summary: in vivo
endpoint: Cmax (ng/mL)
Numbers only here, please. The scale is ng/mL.

Task: # get_value(readout='Cmax', item= `CC(C)S(=O)(=O)c1ccccc1Nc1nc(Nc2ccc(NC(=O)CCCCCCC(=O)NO)cc2)ncc1Cl` )
Result: 1480

###

- tested_system: ALK tyrosine kinase receptor (Homo sapiens)
- procedure_details: Inhibition of ALK (unknown origin) at 10 nM preincubated for 10 mins followed by addition of substrate and ATP for 25 mins by caliper EZ reader method
- condition_summary: time 35.0 min
endpoint: inhibition (%)

# smiles_notation, inhibition, %
data = [
    ("COc1cc(C(=O)NCCCCCC(=O)NO)ccc1Nc1ncc(Cl)c(Nc2ccccc2S(=O)(=O)C(C)C)n1", 97.3),
    ("COc1cnc(Nc2ccc(NC(=O)CCCCCCC(=O)NO)cc2)nc1Nc1ccccc1S(=O)(=O)C(C)C", 60.4),
    ("CC(C)S(=O)(=O)c1ccccc1Nc1nc(Nc2ccc(/C=C/C(=O)NO)cc2)ncc1Cl", 71.6),
    ("O=C(CCCCCCC(=O)Nc1ccc(Nc2ncc(Cl)c(Nc3ccccc3Br)n2)cc1)NO", 0.2),
]

I. COc1ccc(C)c(Nc2nc(Nc3ccc(NC(=O)CCCCCCC(=O)NO)cc3)ncc2Cl)c1
II. Cc1cc(Nc2ncc(Cl)c(Nc3ccccc3S(=O)(=O)C(C)C)n2)ccc1C(=O)NCCCCCCC(=O)NO
Task: Which entry has a larger number for inhibition, I or II ? Give the chosen item's label as your response.
Result: II

###

- tested_system: ALK tyrosine kinase receptor (Homo sapiens, UniProt Q9UM73)
- Sequence (Q9UM73 19-1620 limits assumed): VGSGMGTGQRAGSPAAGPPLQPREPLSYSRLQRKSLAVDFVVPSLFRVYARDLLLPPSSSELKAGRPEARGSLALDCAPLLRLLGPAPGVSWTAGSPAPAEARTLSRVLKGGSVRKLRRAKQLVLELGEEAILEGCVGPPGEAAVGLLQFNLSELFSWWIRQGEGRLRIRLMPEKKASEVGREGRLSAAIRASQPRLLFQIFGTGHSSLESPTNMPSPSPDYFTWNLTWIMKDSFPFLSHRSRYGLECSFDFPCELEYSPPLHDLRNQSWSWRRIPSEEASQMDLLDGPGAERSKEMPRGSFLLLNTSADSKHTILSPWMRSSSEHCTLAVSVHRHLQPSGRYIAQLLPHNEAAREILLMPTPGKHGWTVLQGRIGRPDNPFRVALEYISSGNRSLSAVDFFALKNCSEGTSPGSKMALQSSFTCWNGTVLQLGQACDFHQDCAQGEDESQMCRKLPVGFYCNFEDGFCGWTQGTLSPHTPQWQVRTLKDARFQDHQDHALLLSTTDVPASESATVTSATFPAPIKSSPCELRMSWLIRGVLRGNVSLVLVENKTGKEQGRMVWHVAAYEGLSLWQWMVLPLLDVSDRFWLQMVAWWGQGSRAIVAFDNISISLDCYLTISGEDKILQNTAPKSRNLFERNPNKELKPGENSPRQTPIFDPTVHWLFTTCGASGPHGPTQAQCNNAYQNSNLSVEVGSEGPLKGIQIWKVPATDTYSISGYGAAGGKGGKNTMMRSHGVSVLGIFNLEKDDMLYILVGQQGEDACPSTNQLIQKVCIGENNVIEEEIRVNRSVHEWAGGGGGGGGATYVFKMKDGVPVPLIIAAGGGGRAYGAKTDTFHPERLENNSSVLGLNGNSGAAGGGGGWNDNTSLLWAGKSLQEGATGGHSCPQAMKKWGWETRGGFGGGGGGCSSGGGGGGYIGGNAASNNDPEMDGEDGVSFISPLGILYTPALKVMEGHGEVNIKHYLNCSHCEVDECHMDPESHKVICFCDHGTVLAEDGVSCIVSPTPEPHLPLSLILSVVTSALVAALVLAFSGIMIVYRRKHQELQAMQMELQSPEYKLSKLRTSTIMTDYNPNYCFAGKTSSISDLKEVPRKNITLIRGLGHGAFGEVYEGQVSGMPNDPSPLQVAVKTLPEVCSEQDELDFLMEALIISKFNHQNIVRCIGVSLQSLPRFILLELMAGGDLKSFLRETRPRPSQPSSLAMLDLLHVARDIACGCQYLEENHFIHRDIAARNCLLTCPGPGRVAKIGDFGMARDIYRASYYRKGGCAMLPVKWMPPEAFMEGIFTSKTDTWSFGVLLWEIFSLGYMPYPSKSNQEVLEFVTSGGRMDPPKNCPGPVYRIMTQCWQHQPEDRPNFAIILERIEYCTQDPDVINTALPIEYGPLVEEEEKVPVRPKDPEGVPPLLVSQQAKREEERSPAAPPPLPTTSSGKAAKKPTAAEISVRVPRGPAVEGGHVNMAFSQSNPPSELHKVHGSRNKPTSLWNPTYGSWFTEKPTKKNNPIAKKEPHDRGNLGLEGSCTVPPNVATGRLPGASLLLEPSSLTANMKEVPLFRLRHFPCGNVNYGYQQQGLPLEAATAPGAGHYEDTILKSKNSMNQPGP
- procedure_details: Inhibition of ALK (unknown origin) at 100 nM preincubated for 10 mins followed by addition of substrate and ATP for 25 mins by caliper EZ reader method
- condition_summary: time 35.0 min
endpoint: inhibition (%)

# annotated cases, reported inhibition shown
# smiles_notation, endpoint, recorded_value
rows = [
    ("CC(C)S(=O)(=O)c1ccccc1Nc1nc(Nc2ccc(C(=O)NCCC(=O)NO)cc2)ncc1Cl", "inhibition", 97.3),
    ("O=C(CCCCCCC(=O)Nc1ccc(Nc2ncc(Cl)c(Nc3ccccc3Br)n2)cc1)NO", "inhibition", 25),
    ("COc1ccc(C)c(Nc2nc(Nc3ccc(NC(=O)CCCCCCC(=O)NO)cc3)ncc2Cl)c1", "inhibition", 4.9),
    ("CC(C)S(=O)(=O)c1ccccc1Nc1nc(Nc2ccc(/C=C/C(=O)NO)cc2)ncc1Cl", "inhibition", 101),
    ("CC(C)S(=O)(=O)c1ccccc1Nc1nc(Nc2ccc(NC(=O)CCCCCCC(=O)NO)cc2)ncc1Cl", "inhibition", 96.6),
]

a. CC(C)S(=O)(=O)c1ccccc1Nc1nc(Nc2ccc(C(=O)NCCCCCC(=O)NO)c(Cl)c2)ncc1Cl
b. O=C(CCCCCCC(=O)Nc1ccc(Nc2ncc(Cl)c(Nc3ccccc3)n2)cc1)NO
Task: I'd appreciate it if you could identify which of a and b has the greater inhibition. Mark your answer with the label of the selected entry.
Result: a

###

- tested_system: Histone deacetylase 1 (Homo sapiens, UniProt Q13547)
- Sequence (Q13547 whole entry): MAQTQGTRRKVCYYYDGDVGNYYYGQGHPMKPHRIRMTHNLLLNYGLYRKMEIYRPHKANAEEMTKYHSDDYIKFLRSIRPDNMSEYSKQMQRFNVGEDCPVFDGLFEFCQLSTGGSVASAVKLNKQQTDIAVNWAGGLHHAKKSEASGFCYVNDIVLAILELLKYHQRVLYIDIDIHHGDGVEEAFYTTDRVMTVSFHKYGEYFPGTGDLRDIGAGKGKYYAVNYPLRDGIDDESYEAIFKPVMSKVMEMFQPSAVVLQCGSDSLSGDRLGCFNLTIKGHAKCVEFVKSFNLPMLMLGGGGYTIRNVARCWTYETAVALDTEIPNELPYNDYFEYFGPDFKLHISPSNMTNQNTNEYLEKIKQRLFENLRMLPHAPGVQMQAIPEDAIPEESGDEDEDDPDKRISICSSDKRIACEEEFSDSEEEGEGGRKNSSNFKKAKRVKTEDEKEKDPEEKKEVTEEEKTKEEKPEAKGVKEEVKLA
- condition_summary: Sf9, dose 100.0 nM, time 15.0 min
endpoint: inhibition (%)

# smiles_notation, tested_system, endpoint, endpoint_unit, recorded_value
data = [
    ("COc1cnc(Nc2ccc(NC(=O)CCCCCCC(=O)NO)cc2)nc1Nc1ccccc1S(=O)(=O)C(C)C", "Histone deacetylase 1 (Homo sapiens, UniProt Q13547)", "inhibition", "%", 91),
    ("CC(C)S(=O)(=O)c1ccccc1Nc1nc(Nc2ccc(C(=O)NCCC(=O)NO)cc2)ncc1Cl", "Histone deacetylase 1 (Homo sapiens, UniProt Q13547)", "inhibition", "%", 3),
    ("CC(C)S(=O)(=O)c1ccccc1Nc1nc(Nc2ccc(C(=O)NCCCC(=O)NO)cc2)ncc1Cl", "Histone deacetylase 1 (Homo sapiens, UniProt Q13547)", "inhibition", "%", 4),
]

1. Cc1cnc(Nc2ccc(NC(=O)CCCCCCC(=O)NO)cc2)nc1Nc1ccccc1S(=O)(=O)C(C)C
2. CC(C)S(=O)(=O)c1ccccc1Nc1nc(Nc2ccc(C(=O)NCCCCC(=O)NO)cc2)ncc1Cl
3. CC(C)S(=O)(=O)c1ccccc1Nc1nc(Nc2cccc(C(=O)NCCC(=O)NO)c2)ncc1Cl
Task: Ascending by inhibition, please. To answer, arrange all of the labels according to the requested order.
Result: 3, 2, 1
(3: 4%, 2: 31%, 1: 93%)

###

- tested_system: ALK tyrosine kinase receptor (Homo sapiens, UniProt Q9UM73, L1196M)
- Sequence (Q9UM73 19-1620 L1196M limits assumed): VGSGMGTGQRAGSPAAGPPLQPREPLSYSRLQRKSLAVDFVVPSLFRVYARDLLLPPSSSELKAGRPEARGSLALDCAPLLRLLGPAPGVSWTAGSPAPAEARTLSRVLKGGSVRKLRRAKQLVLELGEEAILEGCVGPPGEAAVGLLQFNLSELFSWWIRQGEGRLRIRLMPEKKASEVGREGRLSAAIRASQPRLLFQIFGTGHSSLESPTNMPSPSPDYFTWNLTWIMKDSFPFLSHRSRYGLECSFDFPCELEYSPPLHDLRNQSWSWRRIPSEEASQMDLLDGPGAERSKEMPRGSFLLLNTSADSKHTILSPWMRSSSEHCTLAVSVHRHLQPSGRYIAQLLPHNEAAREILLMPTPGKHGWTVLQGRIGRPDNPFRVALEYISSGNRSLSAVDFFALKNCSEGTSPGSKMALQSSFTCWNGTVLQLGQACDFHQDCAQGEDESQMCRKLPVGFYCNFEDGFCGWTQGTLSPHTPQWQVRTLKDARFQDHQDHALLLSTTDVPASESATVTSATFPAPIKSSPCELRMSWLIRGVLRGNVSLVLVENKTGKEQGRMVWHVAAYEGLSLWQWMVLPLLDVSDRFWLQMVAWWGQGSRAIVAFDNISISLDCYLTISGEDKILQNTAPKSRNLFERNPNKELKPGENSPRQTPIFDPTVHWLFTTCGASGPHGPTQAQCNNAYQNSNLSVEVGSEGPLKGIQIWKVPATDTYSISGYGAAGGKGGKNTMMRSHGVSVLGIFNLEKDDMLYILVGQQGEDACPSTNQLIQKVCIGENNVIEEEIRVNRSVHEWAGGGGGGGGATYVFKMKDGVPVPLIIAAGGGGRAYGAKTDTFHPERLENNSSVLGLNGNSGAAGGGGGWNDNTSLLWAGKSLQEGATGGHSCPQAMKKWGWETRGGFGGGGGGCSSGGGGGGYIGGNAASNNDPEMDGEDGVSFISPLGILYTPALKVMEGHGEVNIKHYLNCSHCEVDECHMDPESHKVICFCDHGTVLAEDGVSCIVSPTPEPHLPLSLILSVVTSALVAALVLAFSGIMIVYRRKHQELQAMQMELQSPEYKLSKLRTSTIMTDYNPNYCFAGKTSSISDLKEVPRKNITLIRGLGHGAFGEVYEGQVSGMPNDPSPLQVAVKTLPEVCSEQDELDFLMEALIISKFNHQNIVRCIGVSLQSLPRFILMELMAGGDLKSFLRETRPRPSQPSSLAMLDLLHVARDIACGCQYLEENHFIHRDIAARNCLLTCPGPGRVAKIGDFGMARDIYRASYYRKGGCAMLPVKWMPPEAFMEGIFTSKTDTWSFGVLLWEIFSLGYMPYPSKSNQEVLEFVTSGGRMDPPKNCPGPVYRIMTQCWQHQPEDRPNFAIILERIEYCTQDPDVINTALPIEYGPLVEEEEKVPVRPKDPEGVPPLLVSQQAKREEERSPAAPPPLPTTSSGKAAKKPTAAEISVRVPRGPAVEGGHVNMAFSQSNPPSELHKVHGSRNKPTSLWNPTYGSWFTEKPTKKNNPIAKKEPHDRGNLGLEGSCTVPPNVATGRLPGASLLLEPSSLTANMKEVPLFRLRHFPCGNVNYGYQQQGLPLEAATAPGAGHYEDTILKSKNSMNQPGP
endpoint: IC50 (nM)

# smiles_notation, tested_system, IC50 / nM
rows = [
    ("CC(C)S(=O)(=O)c1ccccc1Nc1nc(Nc2ccc(C(=O)NCCCCCCC(=O)NO)cc2)ncc1Cl", "ALK tyrosine kinase receptor (Homo sapiens, UniProt Q9UM73, L1196M)", 2.4),
    ("CC(C)S(=O)(=O)c1ccccc1Nc1nc(Nc2ccc(NC(=O)CCCCCCC(=O)NO)cc2)ncc1Cl", "ALK tyrosine kinase receptor (Homo sapiens, UniProt Q9UM73, L1196M)", 1.7),
]

###

- tested_system: Histone deacetylase 1 (Homo sapiens, UniProt Q13547)
- condition_summary: Sf9, dose 10.0 nM, time 15.0 min
endpoint: inhibition (%)

# smiles_notation, recorded_value
rows = [
    ("COc1cnc(Nc2ccc(NC(=O)CCCCCCC(=O)NO)cc2)nc1Nc1ccccc1S(=O)(=O)C(C)C", 68),
    ("CC(C)S(=O)(=O)c1ccccc1Nc1nc(Nc2cccc(NC(=O)CCCC(=O)NO)c2)ncc1Cl", 38),
]

1. CC(C)S(=O)(=O)c1ccccc1Nc1nc(Nc2cccc(C(=O)NCCCCCCC(=O)NO)c2)ncc1Cl
2. O=C(CCCCCCC(=O)Nc1ccc(Nc2ncc(Cl)c(Nc3ccccc3Cl)n2)cc1)NO
3. COc1cc(Nc2ncc(Cl)c(Nc3ccccc3S(=O)(=O)C(C)C)n2)ccc1C(=O)NCCCCCC(=O)NO
4. CC(C)S(=O)(=O)c1ccccc1Nc1nc(Nc2cccc(C(=O)NO)c2)ncc1Cl
Task: Order these by inhibition, descending, and give the full ranking. Answer by listing the labels in the requested order.
Result: 2, 1, 3, 4

I. CC(C)S(=O)(=O)c1ccccc1Nc1nc(Nc2ccc(NC(=O)CCC(=O)NO)cc2)ncc1Cl
II. COc1cccc(Nc2nc(Nc3ccc(NC(=O)CCCCCCC(=O)NO)cc3)ncc2C(F)(F)F)c1
Task: Quick one: lower inhibition, I or II ? Your answer should be the label attached to the chosen record.
Result: I
(I: -2%, II: 56%)
